Subject of test: T1, GLP-1R in the INS1e assay (UniProt P32301 22-463, limits assumed)
T1 sequence (looked up): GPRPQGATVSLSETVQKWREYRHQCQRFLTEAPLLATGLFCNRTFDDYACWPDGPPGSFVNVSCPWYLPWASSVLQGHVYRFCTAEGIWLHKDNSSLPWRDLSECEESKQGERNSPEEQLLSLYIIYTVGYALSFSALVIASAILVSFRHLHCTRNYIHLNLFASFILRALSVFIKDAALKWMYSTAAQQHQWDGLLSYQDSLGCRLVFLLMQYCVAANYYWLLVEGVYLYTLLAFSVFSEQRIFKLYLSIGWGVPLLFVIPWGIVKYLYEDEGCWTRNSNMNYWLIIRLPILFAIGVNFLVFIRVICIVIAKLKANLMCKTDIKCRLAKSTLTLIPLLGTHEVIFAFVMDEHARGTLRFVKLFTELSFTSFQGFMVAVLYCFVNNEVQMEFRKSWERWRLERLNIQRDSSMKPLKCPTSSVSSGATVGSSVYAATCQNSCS
Assay procedure: cell-based or functional assay
Starred links: 1 amine or outer side, 2 acyl side, 3 side chain; linkers in the order of their positions; H or OH if unused. Non-standard residues stand in square brackets, D forms with d. Groups on a side chain read outwards from the residue. Primed or numbered codes have the meaning given here. No end group written: not given here. *: point of attachment. γGlu = O=C(O)[C@H](CCC(=O)[*:2])N[*:1]; αMeF = C[C@](N)(Cc1ccccc1)C(=O)O; αMeK = C[C@](N)(CCCCN)C(=O)O; Lauroyl = CCCCCCCCCCCC(=O)*; αMeS = C[C@](N)(CO)C(=O)O; PEG2′ = not defined here; Aib = CC(C)(N)C(=O)O
Decision: cAMP INS1e assay EC50, n2 >= 4 nM yields fulfilled, all other cases yield not fulfilled.

{"columns": ["Binder", "Answer label"],
 "data": [
  ["H[Aib]EGS[αMeF]TSDV[αMeS]SK([PEG2′-PEG2′-γGlu-Lauroyl])LEGK([PEG2′-PEG2′-γGlu-Lauroyl])AA[αMeK]EFIAK([PEG2′-PEG2′-γGlu-Lauroyl])VVEGG-NH2 [SEQ ID NO: 464]", "not fulfilled"],
  ["H[Aib]EGS[αMeF]TSDV[αMeS]SK([PEG2′-PEG2′-γGlu-Lauroyl])LEGEAA[αMeK]K([PEG2′-PEG2′-γGlu-Lauroyl])FIAFK([PEG2′-PEG2′-γGlu-Lauroyl])VEGG-NH2 [SEQ ID NO: 482]", "not fulfilled"],
  ["H[Aib]EGS[αMeF]TSDVSK([PEG2′-PEG2′-γGlu-Lauroyl])YLEGEAA[αMeK]K([PEG2′-PEG2′-γGlu-Lauroyl])FIAK([PEG2′-PEG2′-γGlu-Lauroyl])VVEGG-NH2 [SEQ ID NO: 462]", "not fulfilled"],
  ["H[Aib]EGS[αMeF]TSDV[αMeS]SK([PEG2′-PEG2′-γGlu-Lauroyl])LEGEAA[αMeK]K([PEG2′-PEG2′-γGlu-Lauroyl])FIK([PEG2′-PEG2′-γGlu-Lauroyl])FVVEGG-NH2 [SEQ ID NO: 450]", "fulfilled"]
]}

Would you kindly look at the next entry?
Data request: Given H[Aib]EGS[αMeF]TSDV[αMeS]SK([PEG2′-PEG2′-γGlu-Lauroyl])LEGK([PEG2′-PEG2′-γGlu-Lauroyl])AA[αMeK]EFIAFK([PEG2′-PEG2′-γGlu-Lauroyl])VEGG-NH2 [SEQ ID NO: 480] , state whether its cAMP INS1e assay EC50, n2 is at least 4 nM.
Data returned: not fulfilled
